test: Bidirectional Caco-2 permeability assay; assay type: in vitro ADME; conditions: human; Caco-2 monolayer; ER>2 indicates potential efflux substrate; read-out: ER (efflux ratio)
Below, each entry is listed with its recorded efflux ratio at 90 min.

[
  {
    "molecule.smiles": "COC(C)(C)C(=O)Nc1ncnn2c([C@]3(C#N)O[C@H](COC(=O)Cc4ccccc4)[C@@H](OC(=O)[C@@H](N)C(C)(C)C)[C@H]3O)ccc12",
    "efflux ratio at 90 min": 0.93
  },
  {
    "molecule.smiles": "CC(C)[C@@H](C)C(=O)Nc1ncnn2c([C@]3(C#N)O[C@H](COC(=O)Cc4ccccc4)[C@@H](OC(=O)[C@@H](N)C(C)(C)C)[C@H]3O)ccc12",
    "efflux ratio at 90 min": 6.77
  },
  {
    "molecule.smiles": "CC(C)NC(=O)Nc1ncnn2c([C@]3(C#N)O[C@H](COC(=O)Cc4ccccc4)[C@@H](OC(=O)[C@@H](N)C(C)(C)C)[C@H]3O)ccc12",
    "efflux ratio at 90 min": 11.6
  }
]

----------
assay: Bidirectional Caco-2 permeability assay; type: in vitro ADME; conditions: human, Caco-2
Recorded Papp B→A at 90 min split into classes bottom bin = under 3 ×10⁻⁶ cm/s, middle bin = from 3 ×10⁻⁶ cm/s up to 6 ×10⁻⁶ cm/s, top bin = 6 ×10⁻⁶ cm/s and over

[
  {
    "molecule.smiles": "CCC(=O)O[C@H]1[C@@H](O)[C@](C#N)(c2ccc3c(NC(=O)OCOC(=O)C(C)(C)C)ncnn23)O[C@@H]1COC(=O)[C@@H](N)C(C)(C)C",
    "group": "middle bin"
  },
  {
    "molecule.smiles": "CCCCC(=O)Nc1ncnn2c([C@]3(C#N)O[C@H](COC(=O)CC4CCC4)[C@@H](OC(=O)[C@@H](N)C(C)(C)C)[C@H]3O)ccc12",
    "group": "top bin"
  },
  {
    "molecule.smiles": "CCCCCCOC(=O)Nc1ncnn2c([C@]3(C#N)O[C@H](COC(=O)[C@@H](N)C(C)(C)C)[C@@H](O)[C@H]3O)ccc12",
    "group": "top bin"
  },
  {
    "molecule.smiles": "COC(C)(C)C(=O)Nc1ncnn2c([C@]3(C#N)O[C@H](COC(=O)CC4CCCC4)[C@@H](OC(=O)[C@@H](N)C(C)(C)C)[C@H]3O)ccc12",
    "group": "top bin"
  },
  {
    "molecule.smiles": "COC(C)(C)C(=O)Nc1ncnn2c([C@]3(C#N)O[C@H](COC(=O)CC4CCCCCC4)[C@@H](OC(=O)[C@H](N)C(C)(C)C)[C@H]3O)ccc12",
    "group": "bottom bin"
  },
  {
    "molecule.smiles": "COC(C)(C)C(=O)Nc1ncnn2c([C@]3(C#N)O[C@H](COC(=O)CC4CCCCC4)[C@@H](OC(=O)[C@H](N)C(C)(C)C)[C@H]3O)ccc12",
    "group": "middle bin"
  },
  {
    "molecule.smiles": "CC(=O)OCOC(=O)Nc1ncnn2c([C@]3(C#N)O[C@H](COC(=O)CC4CCCCC4)[C@@H](OC(=O)[C@@H](N)C(C)(C)C)[C@H]3O)ccc12",
    "group": "bottom bin"
  },
  {
    "molecule.smiles": "CC[C@H](C)C(=O)Nc1ncnn2c([C@]3(C#N)O[C@H](COC(=O)CC4CCCCC4)[C@@H](OC(=O)[C@@H](N)C(C)(C)C)[C@H]3O)ccc12",
    "group": "top bin"
  },
  {
    "molecule.smiles": "CC(C)NC(=O)Nc1ncnn2c([C@]3(C#N)O[C@H](COC(=O)CC4CCCCC4)[C@@H](OC(=O)[C@@H](N)C(C)(C)C)[C@H]3O)ccc12",
    "group": "middle bin"
  },
  {
    "molecule.smiles": "CCCCCC(=O)Nc1ncnn2c([C@]3(C#N)O[C@H](COC(=O)CC4CCCC4)[C@@H](OC(=O)[C@@H](N)C(C)(C)C)[C@H]3O)ccc12",
    "group": "middle bin"
  },
  {
    "molecule.smiles": "CCCCOC(C)(C)C(=O)Nc1ncnn2c([C@]3(C#N)O[C@H](COC(=O)CC4CCCC4)[C@@H](OC(=O)[C@@H](N)C(C)(C)C)[C@H]3O)ccc12",
    "group": "top bin"
  },
  {
    "molecule.smiles": "CCCC(=O)Nc1ncnn2c([C@]3(C#N)O[C@H](COC(=O)CC4CCCCC4)[C@@H](OC(=O)[C@@H](N)C(C)(C)C)[C@H]3O)ccc12",
    "group": "top bin"
  },
  {
    "molecule.smiles": "CCCCOC(=O)Nc1ncnn2c([C@]3(C#N)O[C@H](COC(=O)CC4CCCCCC4)[C@@H](OC(=O)[C@@H](N)C(C)(C)C)[C@H]3O)ccc12",
    "group": "bottom bin"
  },
  {
    "molecule.smiles": "CCC(=O)O[C@H]1[C@@H](O)[C@](C#N)(c2ccc3c(NC(=O)OCOC(C)=O)ncnn23)O[C@@H]1COC(=O)[C@@H](N)C(C)(C)C",
    "group": "bottom bin"
  },
  {
    "molecule.smiles": "CCCCCC(=O)Nc1ncnn2c([C@]3(C#N)O[C@H](COC(=O)CC4CCC4)[C@@H](OC(=O)[C@@H](N)C(C)(C)C)[C@H]3O)ccc12",
    "group": "middle bin"
  },
  {
    "molecule.smiles": "CCCCCCOC(=O)Nc1ncnn2c([C@]3(C#N)O[C@H](COC(=O)[C@@H](N)C(C)(C)C)[C@@H](OC(=O)CC)[C@H]3O)ccc12",
    "group": "middle bin"
  },
  {
    "molecule.smiles": "COC(C)(C)C(=O)Nc1ncnn2c([C@]3(C#N)O[C@H](COC(=O)CC4CCCCCC4)[C@@H](OC(=O)[C@@H](N)C(C)(C)C)[C@H]3O)ccc12",
    "group": "bottom bin"
  },
  {
    "molecule.smiles": "CCOC(C)(C)C(=O)Nc1ncnn2c([C@]3(C#N)O[C@H](COC(=O)CC4CCCC4)[C@@H](OC(=O)[C@@H](N)C(C)(C)C)[C@H]3O)ccc12",
    "group": "middle bin"
  },
  {
    "molecule.smiles": "CCC(CC)C(=O)Nc1ncnn2c([C@]3(C#N)O[C@H](COC(=O)CC4CCCC4)[C@@H](OC(=O)[C@H](N)C(C)(C)C)[C@H]3O)ccc12",
    "group": "bottom bin"
  },
  {
    "molecule.smiles": "CCC(CC)C(=O)Nc1ncnn2c([C@]3(C#N)O[C@H](COC(=O)CC4CCCCCC4)[C@@H](OC(=O)[C@@H](N)C(C)(C)C)[C@H]3O)ccc12",
    "group": "bottom bin"
  },
  {
    "molecule.smiles": "CCCCOC(C)(C)C(=O)Nc1ncnn2c([C@]3(C#N)O[C@H](COC(=O)CC4CCCCCC4)[C@@H](OC(=O)[C@@H](N)C(C)(C)C)[C@H]3O)ccc12",
    "group": "top bin"
  }
]

----------
test: Stability in human fasted-state simulated gastric fluid and fasted-state simulated intestinal fluid; assay type: physicochemical; settings: fasted-state simulated gastric fluid (FaSSGF); human fasted-state simulated gastric fluid, pH 1.2, LC-MS/MS, timepoints 0-120 min; read-out: FaSSGF t1/2
Listed below: half-life at 1 µM values for each entry.

[
  {
    "molecule": "CCC(CC)C(=O)Nc1ncnn2c([C@]3(C#N)O[C@H](COC(=O)CC4CCCCC4)[C@@H](OC(=O)[C@@H](N)C(C)(C)C)[C@H]3O)ccc12 [Compound 2]",
    "unit.annotation": "h",
    "value.modifier": ">",
    "half-life at 1 µM": 6.22
  },
  {
    "molecule": "COC(C)(C)C(=O)Nc1ncnn2c([C@]3(C#N)O[C@H](COC(=O)CC4CCCCC4)[C@@H](OC(=O)[C@@H](N)C(C)(C)C)[C@H]3O)ccc12 [Compound 3]",
    "unit.annotation": "h",
    "value.modifier": "=",
    "half-life at 1 µM": 0.347
  },
  {
    "molecule": "CC(C)(C)[C@@H](N)C(=O)OC[C@H]1O[C@@](C#N)(c2ccc3c(N)ncnn23)[C@H](O)[C@@H]1OC(=O)CC1CCCCC1 [Compound 37]",
    "unit.annotation": "h",
    "value.modifier": ">",
    "half-life at 1 µM": 6.21
  },
  {
    "molecule": "CCCC(=O)Nc1ncnn2c([C@]3(C#N)O[C@H](COC(=O)CC4CCCCC4)[C@@H](OC(=O)[C@@H](N)C(C)(C)C)[C@H]3O)ccc12 [Compound 1]",
    "unit.annotation": "h",
    "value.modifier": "=",
    "half-life at 1 µM": 1.61
  }
]
